Consider the following compounds and their measured Susceptible LC50 readings.
- Tested on: Susceptible strain of horn flies (Haematobia irritans)
- ASSAY REMARKS: treated filterpaper-tarsal contact 24 hour bioassay, susceptible horn flies (Example 2)
- Format: in vivo
- COND: Table II
# output: bare number, implied unit μg/cm^2

Requested field: Susceptible LC50. Item: CCOCn1c(-c2ccc(Cl)cc2)c(C#N)c(Cl)c1C(F)(F)F [Compound D]
8.692

Record request: Susceptible LC50 value, item CC1(C)C(C=C(Cl)Cl)C1C(=O)OCc1cccc(Oc2ccccc2)c1 (stereo not shown) [Compound E, Permethrin, reference compound]
0.102

For the compound shown here, CCOCn1c(-c2ccc(Cl)cc2)c(C#N)c(Br)c1C(F)(F)F [Compound A] , give the reported Susceptible LC50.
1.691

Next:
I am curious: what Susceptible LC50 value has been reported for N#Cc1c(-c2ccc(Cl)cc2)[nH]c(C(F)(F)F)c1Br [Compound C] ?
21.237

src = patent US5817324A
